These data points were gathered from the supplement of paper PMC10567573.

B1: RSAD1 (parent)
chain: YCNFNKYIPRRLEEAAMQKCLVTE

Variants of: B1
Procedure Summary: protein stability index of a GFP-peptide fusion (GPS, HEK-293T) (PSI 1-6); higher = more stable;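 further: lentivirally expressed fusions sorted by FACS into six bins by GFP to DsRed ratio, PSI derived from sequencing read proportions per bin multiplied by bin number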
Assay Setup: c terminus: a fixed tail appended

{"columns": ["Variant Descriptor", "protein stability index"],
 "data": [
  ["E13T", 2.55],
  ["P9W", 2.6],
  ["E24F", 2.77],
  ["A16M", 1.57],
  ["E13H", 3.29],
  ["Q18C", 2.41],
  ["K19I", 2.25],
  ["A15F", 2.02],
  ["M17A", 1.98],
  ["A15N", 2.09],
  ["E24M", 2.84],
  ["E13L", 2.16],
  ["A16I", 3.03],
  ["E14A", 3.07],
  ["K6A", 2.11],
  ["E14R", 2.33],
  ["K19S", 2.41],
  ["L21G", 2.03],
  ["M17Y", 2.85],
  ["L21D", 2.17],
  ["C2Y", 1.89],
  ["E14L", 2.34],
  ["K19Q", 2.96],
  ["V22Q", 2.5],
  ["C20F", 2.7],
  ["P9M", 1.4],
  ["Y7P", 2.42],
  ["L21Y", 3.19],
  ["C2M", 2.31],
  ["R10E", 1.26],
  ["R10L", 2.63],
  ["N3R", 1.66],
  ["Y7R", 2.31],
  ["E14D", 2.71],
  ["L12N", 3.28],
  ["V22H", 2.78],
  ["Y1V", 1.99],
  ["A16V", 2.98],
  ["I8W", 2.26],
  ["I8R", 1.67],
  ["A15Y", 2.61],
  ["E24A", 3.14],
  ["K6Q", 1.5],
  ["I8G", 1.22],
  ["P9C", 3.11],
  ["A16W", 1.79]
]}
